Molecular target: UniProt P56817
Sequence (P56817 46-501): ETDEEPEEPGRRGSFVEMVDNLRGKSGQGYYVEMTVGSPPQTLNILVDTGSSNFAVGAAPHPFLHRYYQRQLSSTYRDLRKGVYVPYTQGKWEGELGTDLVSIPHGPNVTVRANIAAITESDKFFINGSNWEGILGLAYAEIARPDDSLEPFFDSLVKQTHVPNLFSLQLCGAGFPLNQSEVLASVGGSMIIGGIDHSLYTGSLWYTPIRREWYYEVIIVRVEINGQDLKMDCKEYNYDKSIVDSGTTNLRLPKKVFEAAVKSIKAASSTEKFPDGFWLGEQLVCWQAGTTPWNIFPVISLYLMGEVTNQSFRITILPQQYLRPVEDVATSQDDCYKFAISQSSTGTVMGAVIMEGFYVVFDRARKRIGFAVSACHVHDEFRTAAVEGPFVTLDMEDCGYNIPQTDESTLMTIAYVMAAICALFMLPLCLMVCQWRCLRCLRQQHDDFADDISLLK
Assay: In vitro enzymatic BACE FRET (fluorescence resonance energy transfer) assay;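 note: fluorescence read after 1 h with 50 nM quenched peptide substrate spanning the BACE cleavage site, in pH 4.2 acetate buffer containing 10% DMSO and nonionic detergent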
Type: biochemical
Conditions: BACE enzyme assay; read-out: BACE1 FRET assay
Measurement name: IC50 (nM)
Hi! Could you send only the number? It should be in nM, unit omitted.

Item: CO[C@H](C)C(=O)N[C@@H](Cc1cccc(F)c1)[C@H](O)CN[C@H]1CC2(CCC2)Oc2c(-c3ccncc3)cc(CC(C)(C)F)cc21 | System: UniProt P56817 | IC50: 32

Item: CO[C@H](C)C(=O)N[C@@H](Cc1ccc2c(c1)OCO2)[C@H](O)CN[C@@H]1c2cc(CC(C)(C)C)cnc2OC2(CCC2)[C@@H]1F | System: UniProt P56817 | IC50: 57

Item: COCC(=O)N[C@@H](Cc1ccc(F)cc1)[C@H](O)CN[C@H]1CC2(CCC2)Oc2ncc(C(F)(F)C(C)(C)C)cc21 | System: UniProt P56817 | IC50: 165

Item: COCC(=O)N[C@@H](Cc1cccc(F)c1)[C@H](O)CN[C@H]1CC2(CCC2)Oc2ccc(C[C@@H](C)F)cc21 | System: UniProt P56817 | IC50: 27

Item: COCC(=O)N[C@@H](Cc1cc(F)cc(F)c1)[C@H](O)CN[C@H]1CC2(CCC2)Oc2c(-c3cncs3)cc(CC(C)C)cc21 | System: UniProt P56817 | IC50: 3

Item: COCC(=O)N[C@@H](Cc1cc(F)cc(F)c1)[C@H](O)CN[C@H]1CC2(CCC2)Oc2c1cc(CC(C)(C)C)nc2-c1cnc[nH]1 | System: UniProt P56817 | IC50: 24

Item: CC(C)(C)Cc1cnc2c(c1)[C@@H](NC[C@@H](O)[C@H](Cc1ccc(F)cc1)NC(=O)[C@H]1CCO1)CC1(CCC1)O2 | System: UniProt P56817 | IC50: 16

Item: CO[C@H](C)C(=O)N[C@@H](Cc1cccc(F)c1)[C@H](O)CN[C@H]1CC2(CCC2)Oc2c1cc(CC(C)C)cc2-n1ccnc1 | System: UniProt P56817 | IC50: 19

Item: CC(C)OCC(=O)N[C@@H](Cc1ccc(F)cc1)[C@H](O)CN[C@H]1CC2(CCC2)Oc2ncc(CC(C)(C)C)cc21 | System: UniProt P56817 | IC50: 49

Item: CO[C@H](C)C(=O)N[C@@H](Cc1cccc(F)c1)[C@H](O)CN[C@H]1CC2(CCC2)Oc2c(-c3cscn3)cc(CC(C)C)cc21 | System: UniProt P56817 | IC50: 8

Item: CO[C@H](C)C(=O)N[C@@H](Cc1ccc2c(c1)OCO2)[C@H](O)CN[C@H]1CC2(CCC2)Oc2ccc(C[C@H](C)F)cc21 | System: UniProt P56817 | IC50: 3420

Item: CC(=O)N[C@@H](Cc1ccc(F)cc1)[C@H](O)CN[C@H]1CC2(CCC2)Oc2ncc(C(F)(F)C(C)(C)C)cc21 | System: UniProt P56817 | IC50: 136

Item: CC(C)(C)Cc1cnc2c(c1)[C@@H](NC[C@@H](O)[C@H](Cc1ccc(F)cc1)NC=O)CC1(CCC1)O2 | System: UniProt P56817 | IC50: 14

Item: COCC(=O)N[C@@H](Cc1cccc(F)c1)[C@H](O)CN[C@H]1CC2(CCC2)Oc2ccc(C[C@H](C)F)cc21 | System: UniProt P56817 | IC50: 28

Item: COCC(=O)N[C@@H](Cc1cc(F)cc(F)c1)[C@H](O)CN[C@H]1CC2(CCC2)Oc2c(-c3ccncc3)cc(CC(C)(C)C)cc21 | System: UniProt P56817 | IC50: 9

Item: COCC(=O)N[C@@H](Cc1cccc(F)c1)[C@H](O)CN[C@H]1CC2(CCC2)Oc2c(-c3cscn3)cc(CC(C)C)cc21 | System: UniProt P56817 | IC50: 6

Item: COCC(=O)N[C@@H](Cc1ccccc1)[C@H](O)CN[C@H]1CC2(CCC2)Oc2c1cc(CC(C)(C)C)nc2-c1ccncc1 | System: UniProt P56817 | IC50: 20

Item: COCC(=O)N[C@@H](Cc1ccc2c(c1)OCO2)[C@H](O)CN[C@H]1CC2(CCC2)Oc2ncc(CC(F)(F)F)cc21 | System: UniProt P56817 | IC50: 131

Item: COCC(=O)N[C@@H](Cc1ccccc1)[C@H](O)CN[C@H]1CC2(CCC2)Oc2c(Br)cc(CC(C)C)cc21 | System: UniProt P56817 | IC50: 5

Item: COCC(=O)N[C@@H](Cc1ccc(F)cc1)[C@H](O)CN[C@H]1CC2(CCC2)Oc2c(-c3ccncc3)cc(CC(C)(C)C)cc21 | System: UniProt P56817 | IC50: 27

Item: CO[C@H](C)C(=O)N[C@@H](Cc1ccccc1)[C@H](O)CN[C@H]1CC2(CCC2)Oc2c1cc(CC(C)C)cc2-n1ccnc1 | System: UniProt P56817 | IC50: 42

Item: COCC(=O)N[C@@H](Cc1cc(F)cc(F)c1)[C@H](O)CN[C@@H]1CC2(CCC2)Oc2c1cc(CC(C)(C)C)nc2-c1cnc[nH]1 | System: UniProt P56817 | IC50: 487

Item: COCC(=O)N[C@@H](Cc1cccc(F)c1)[C@H](O)CN[C@H]1CC2(CCC2)Oc2c1cc(CC(C)C)cc2-n1ccnc1 | System: UniProt P56817 | IC50: 18

Item: CO[C@H](C)C(=O)N[C@@H](Cc1cccc(F)c1)[C@H](O)CN[C@H]1CC2(CCC2)Oc2c1cc(CC(C)(C)C)nc2-n1ccnc1 | System: UniProt P56817 | IC50: 22

Item: COCC(=O)N[C@@H](Cc1cccc(F)c1)[C@H](O)CN[C@H]1CC2(CCC2)Oc2c(-c3ccncc3)cc(Cl)cc21 | System: UniProt P56817 | IC50: 42

###

Assay: Microsomal stability assay, human liver microsomes;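 note: pooled human liver microsomes at 0.25 mg/mL with 1 µM compound and NADPH at 37 °C, pH 7.4, for 30 min, unchanged parent quantified by LC-MS/MS against the 0 min sample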
Details: human liver microsomes
Field: HLM. Provide a value for each of the molecules that follow.
Answer shape: numeric part, then the unit.

So, COCC(=O)N[C@@H](Cc1cccc(C#N)c1)[C@H](O)CN[C@H]1CC2(CCC2)Oc2c(-c3ccncc3)cc(CC(C)(C)C)cc21 ? Its HLM was 32 µL/min/mg

So, CO[C@H](C)C(=O)N[C@@H](Cc1ccc2c(c1)OCO2)[C@H](O)CN[C@H]1CC2(CCC2)C(=O)c2ncc(CC(C)(C)C)cc21 ? Its HLM was 153 µL/min/mg

So, CC(=O)N[C@@H](Cc1cc(F)cc(F)c1)[C@H](O)CN[C@H]1CC2(CCC2)Oc2ncc(C(F)(F)C(C)(C)C)cc21 ? Its HLM was 829 µL/min/mg

So, CC(=O)N[C@@H](Cc1cc(F)cc(-c2ccncc2)c1)[C@H](O)CN[C@H]1CC2(CCC2)Oc2ncc(CC(C)(C)C)cc21 ? Its HLM was 244 µL/min/mg

So, COCC(=O)N[C@@H](Cc1cncs1)[C@H](O)CN[C@H]1CC2(CCC2)Oc2c(-c3ccncc3)cc(CC(C)(C)C)cc21 ? Its HLM was 53 µL/min/mg

So, Cc1cccc(CN2CCO[C@H](C(=O)N[C@@H](Cc3ccc(F)cc3)[C@H](O)CN[C@H]3CC4(CCC4)Oc4ncc(CC(C)(C)C)cc43)C2)c1 ? Its HLM was 543 µL/min/mg

###

System: Aβ40 in conditioned medium of cells stably expressing Amyloid Precursor Protein (APP)
Test: In vitro BACE cell-based assay (Aβ40 in conditioned medium, sandwich ELISA);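 note: compounds added as a dilution series, secreted peptide quantified by europium time-resolved fluorescence readout, potency fitted from percent of control versus compound concentration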
Details: Homo sapiens, HEK293, Table 2; HEK cells; read-out: HEK cell assay
pIC50: −log10 of the molar value.
Label True when pIC50 is at or above 7; otherwise label False.

Task: Is pIC50 at least 7? Consider COCC(=O)N[C@@H](Cc1cc(F)cc(F)c1)[C@H](O)CN[C@H]1CC2(CCC2)Oc2c1cc(CC(C)(C)C)cc2-n1ccnc1 [compound 475]
Output: True

Task: Is pIC50 at least 7? Consider COCC(=O)N[C@@H](Cc1cc(F)cc(F)c1)[C@H](O)CN[C@H]1CC2(CCC2)Oc2c(-c3nccs3)cc(CC(C)C)cc21 [compound 460]
Output: True

Task: Is pIC50 at least 7? Consider C[C@@H](F)C(=O)N[C@@H](Cc1ccc2c(c1)OCO2)[C@H](O)CN[C@H]1CC2(CCC2)Oc2ncc(CC(C)(C)C)cc21 [Example 484]
Output: True

Task: Is pIC50 at least 7? Consider CO[C@@H](C)C(=O)N[C@@H](Cc1ccc2c(c1)OCO2)[C@H](O)CN[C@H]1CC2(CCC2)Oc2c1cc(CC(C)(C)C)nc2N(C)C [compound 443]
Output: False

Task: Is pIC50 at least 7? Consider CC(C)(C)Cc1cnc2c(c1)[C@@H](NC[C@@H](O)[C@H](Cc1ccc3c(c1)OCO3)NC(=O)[C@H]1CCCO1)CC1(CCC1)O2 [compound 454]
Output: True

Task: Is pIC50 at least 7? Consider CO[C@H](C)C(=O)N[C@@H](Cc1ccc(F)cc1)[C@H](O)CN[C@H]1CC2(CCC2)Oc2c1cc(CC(C)C)cc2-n1ccnc1 [compound 482]
Output: False

Task: Is pIC50 at least 7? Consider CO[C@H](C)C(=O)N[C@@H](Cc1ccc2c(c1)OCO2)[C@H](O)CN[C@H]1CC2(CCC2)Oc2c1cc(CC(C)(C)C)nc2N(C)C [compound 444]
Output: False

Task: Is pIC50 at least 7? Consider C[C@H](F)C(=O)N[C@@H](Cc1ccc2c(c1)OCO2)[C@H](O)CN[C@H]1CC2(CCC2)Oc2ncc(CC(C)(C)C)cc21 [Example 483]
Output: True

Task: Is pIC50 at least 7? Consider COCC(=O)N[C@@H](Cc1ccc2c(c1)OCO2)[C@@H](CN[C@H]1CC2(CCC2)Oc2ncc([C@H](F)C(C)(C)C)cc21)OC [compound 447]
Output: False

The origin of these recorded values is patent US8163909B2.
